Source: ChEMBL document CHEMBL4334509

Molecular target: DNA topoisomerase 2-alpha (Homo sapiens)
Sequence (P11388 whole entry): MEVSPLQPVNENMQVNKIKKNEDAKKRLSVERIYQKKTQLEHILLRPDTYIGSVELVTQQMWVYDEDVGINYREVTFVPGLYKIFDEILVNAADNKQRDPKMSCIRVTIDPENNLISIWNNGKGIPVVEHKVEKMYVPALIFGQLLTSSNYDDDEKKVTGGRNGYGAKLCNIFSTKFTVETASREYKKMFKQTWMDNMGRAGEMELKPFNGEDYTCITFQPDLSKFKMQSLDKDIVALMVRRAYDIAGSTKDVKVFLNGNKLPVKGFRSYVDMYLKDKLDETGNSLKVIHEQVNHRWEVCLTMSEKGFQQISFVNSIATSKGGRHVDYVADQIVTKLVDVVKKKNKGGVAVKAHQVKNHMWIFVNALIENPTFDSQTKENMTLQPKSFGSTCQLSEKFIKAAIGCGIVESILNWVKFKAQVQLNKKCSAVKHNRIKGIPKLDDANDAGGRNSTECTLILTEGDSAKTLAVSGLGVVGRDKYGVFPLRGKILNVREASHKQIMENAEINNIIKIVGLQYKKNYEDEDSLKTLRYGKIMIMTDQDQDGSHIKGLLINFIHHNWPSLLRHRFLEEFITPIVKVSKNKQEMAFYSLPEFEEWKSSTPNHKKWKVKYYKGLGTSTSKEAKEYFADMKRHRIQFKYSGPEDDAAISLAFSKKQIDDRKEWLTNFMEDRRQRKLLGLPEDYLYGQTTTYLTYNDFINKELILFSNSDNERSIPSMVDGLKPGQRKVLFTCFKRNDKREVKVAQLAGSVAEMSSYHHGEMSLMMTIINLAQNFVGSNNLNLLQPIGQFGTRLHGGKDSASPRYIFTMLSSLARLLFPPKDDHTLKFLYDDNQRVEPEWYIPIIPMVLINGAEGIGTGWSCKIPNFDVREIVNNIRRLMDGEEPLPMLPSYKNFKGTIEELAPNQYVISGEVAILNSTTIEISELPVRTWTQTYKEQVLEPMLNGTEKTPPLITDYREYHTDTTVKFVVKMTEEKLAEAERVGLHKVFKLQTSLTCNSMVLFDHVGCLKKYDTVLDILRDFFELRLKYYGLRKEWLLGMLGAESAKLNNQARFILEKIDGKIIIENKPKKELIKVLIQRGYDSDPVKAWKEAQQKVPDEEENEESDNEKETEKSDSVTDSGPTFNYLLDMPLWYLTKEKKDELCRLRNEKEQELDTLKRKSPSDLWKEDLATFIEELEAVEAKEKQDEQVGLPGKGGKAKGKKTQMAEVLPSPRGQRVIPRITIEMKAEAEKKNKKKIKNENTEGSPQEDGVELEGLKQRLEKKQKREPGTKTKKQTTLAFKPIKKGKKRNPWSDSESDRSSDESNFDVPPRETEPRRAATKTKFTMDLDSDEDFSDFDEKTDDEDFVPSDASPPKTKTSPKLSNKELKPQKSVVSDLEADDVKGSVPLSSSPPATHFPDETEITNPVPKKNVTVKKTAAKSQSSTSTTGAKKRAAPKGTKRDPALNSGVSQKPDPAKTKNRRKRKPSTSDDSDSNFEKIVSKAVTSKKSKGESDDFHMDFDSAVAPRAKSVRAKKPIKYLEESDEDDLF
Test: Inhibition of human topoisomerase 2alpha-mediated DNA cleavage at 12.5 to 200 uM using supercoiled pSG483 as substrate after 30 mins by ethidium bromide staining based gel electrophoresis method
Activity calls are given as the source filed them. No cut-off for these calls is given here.
readout-label: inhibition

chemical-smiles	result
CC(C)=CCC[C@@]1(C)[C@H](CC=C(C)C)C[C@]2(CC=C(C)C)C(=O)[C@@]1(CC=C(C)C)C(=O)c1c2oc2cc(O)c(O)cc2c1=O	Active
CC(C)=CCC[C@@]1(C)[C@H](CC=C(C)C)C[C@@]2(CC=C(C)C)C(=O)c3c(oc4cc(O)c(O)cc4c3=O)[C@]1(CC=C(C)C)C2=O	Active
CC(C)=CCC[C@@]1(C)[C@H](CC=C(C)C)C[C@]2(CC=C(C)C)C(=O)[C@@]1(CC=C(C)C)C(=O)C(C(=O)c1ccc(O)c(O)c1)=C2O	Active
CC(C)=CCC/C(C)=C/C[C@@]12C[C@H](CC=C(C)C)C(C)(C)[C@@](CC=C(C)C)(C(=O)C(C(=O)c3ccc(O)c(O)c3)=C1O)C2=O	Active

###

Target: DNA topoisomerase 2-beta (Homo sapiens, UniProt Q02880)
Sequence (Q02880 whole entry): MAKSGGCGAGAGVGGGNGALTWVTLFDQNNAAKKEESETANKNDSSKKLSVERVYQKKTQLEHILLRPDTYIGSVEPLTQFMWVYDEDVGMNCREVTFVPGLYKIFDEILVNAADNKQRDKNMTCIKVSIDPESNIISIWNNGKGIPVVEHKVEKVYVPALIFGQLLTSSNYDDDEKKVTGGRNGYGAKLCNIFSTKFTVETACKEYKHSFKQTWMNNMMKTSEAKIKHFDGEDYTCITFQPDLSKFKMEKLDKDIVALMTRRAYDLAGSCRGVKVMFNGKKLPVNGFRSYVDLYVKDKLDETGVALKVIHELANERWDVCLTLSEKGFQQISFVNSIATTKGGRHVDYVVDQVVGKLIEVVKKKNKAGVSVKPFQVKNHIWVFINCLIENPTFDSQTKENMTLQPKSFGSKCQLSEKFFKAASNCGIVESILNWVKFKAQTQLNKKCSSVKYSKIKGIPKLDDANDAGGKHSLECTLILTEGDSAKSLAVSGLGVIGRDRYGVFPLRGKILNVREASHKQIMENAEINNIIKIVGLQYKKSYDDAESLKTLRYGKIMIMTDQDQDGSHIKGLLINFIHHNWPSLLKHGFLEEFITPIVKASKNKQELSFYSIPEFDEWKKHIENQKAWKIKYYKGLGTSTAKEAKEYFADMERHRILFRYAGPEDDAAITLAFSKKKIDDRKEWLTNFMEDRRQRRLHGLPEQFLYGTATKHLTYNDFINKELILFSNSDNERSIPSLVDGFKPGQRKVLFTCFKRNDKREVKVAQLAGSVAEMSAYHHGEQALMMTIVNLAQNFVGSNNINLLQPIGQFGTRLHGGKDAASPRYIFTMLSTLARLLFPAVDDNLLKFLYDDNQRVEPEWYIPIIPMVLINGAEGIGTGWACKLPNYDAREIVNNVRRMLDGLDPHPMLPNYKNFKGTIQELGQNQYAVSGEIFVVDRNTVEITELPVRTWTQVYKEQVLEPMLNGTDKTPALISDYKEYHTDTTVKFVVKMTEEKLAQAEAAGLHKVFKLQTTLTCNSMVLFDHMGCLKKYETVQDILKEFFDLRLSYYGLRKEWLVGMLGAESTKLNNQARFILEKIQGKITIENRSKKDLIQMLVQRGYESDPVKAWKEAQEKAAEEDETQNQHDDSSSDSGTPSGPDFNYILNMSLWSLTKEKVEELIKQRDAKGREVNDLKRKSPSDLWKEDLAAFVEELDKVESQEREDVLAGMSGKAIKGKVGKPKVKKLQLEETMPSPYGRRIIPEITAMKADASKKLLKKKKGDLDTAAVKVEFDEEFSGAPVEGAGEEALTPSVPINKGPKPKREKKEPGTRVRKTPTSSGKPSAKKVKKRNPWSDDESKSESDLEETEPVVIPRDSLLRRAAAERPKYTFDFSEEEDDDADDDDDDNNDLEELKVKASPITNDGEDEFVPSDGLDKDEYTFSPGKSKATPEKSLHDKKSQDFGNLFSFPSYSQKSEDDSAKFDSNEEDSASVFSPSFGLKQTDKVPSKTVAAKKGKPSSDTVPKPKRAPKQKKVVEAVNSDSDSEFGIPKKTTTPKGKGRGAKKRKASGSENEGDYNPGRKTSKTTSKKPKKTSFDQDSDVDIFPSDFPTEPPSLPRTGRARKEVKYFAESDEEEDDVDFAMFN
readout-label: IC50 (µM)
One number for each entry, in µM.

Entry "C=C(C)[C@H](CC=C(C)C)C[C@]12C[C@H](CC=C(C)C)C(C)(C)[C@](CC=C(C)C)(C(=O)C(C(=O)c3ccc(O)c(O)c3)=C1O)C2=O" has what IC50? 101
